# System: Escherichia coli
# Conditions: Concentration 32 ug.mL-1; ASSAY_TEST Inhibition of Bacterial Growth; detection method Absorption (OD600); MEDIA CAMHB; plate type 384well; NBS; CORNING #3640; time 18 hr
# Description: Antibacterial activity against Escherichia coli ATCC 25922 (CO-ADD:GN_001); MIC in CAMBH media using NBS plates, by OD(600)
Results with a measured potency or affinity are listed apart.
Consider the following compounds and their measured Inhibition readings.
Write down the numeric answer in % and omit the unit.

O=C(N/N=C/c1c[nH]c2ccccc12)C(c1ccccc1)c1ccccc1: 7.64

Q. Consider the compound Cn1cc(C(=O)NN)c2ccccc21 and give its measured Inhibition.
A. 20.35

Q. Consider the compound C#CCN(C)c1nc(NCC2CCN(Cc3ccccc3)CC2)c(C#N)c(-c2ccccc2)c1C#N.Cl and give its measured Inhibition.
A. -7.12

Q. Consider the compound CSC1=NC2(CC2c2ccccc2)C(=O)N1C (stereo not given) and give its measured Inhibition.
A. -1.26

Q. Consider the compound Cc1nc(Nc2ccccc2)c2c(C)nn(-c3ccccc3)c2n1 and give its measured Inhibition.
A. 8.02

Q. Consider the compound Cn1cc(/C=C2\NC(=S)NC2=O)c2ccccc21 and give its measured Inhibition.
A. 3.35
